Test: chemical genetic growth profiling, strain panel (AID 1159580);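 further: tested at 20 µM; growth read once vehicle control cultures reached saturation at 30 °C; 1 = growth at the plate median or of vehicle wells; lower values mean less growth of the strain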
Settings: S. cerevisiae deletion strains, growth OD, locus YER155C, strain BEM2, hits give low values
Hit rate of the full screen: of about 5,500 compounds, about 2,000 (36%) were called active. Inconclusive results (about 18%) are left out. This is one part of the list.
What normalized growth was measured for each of the following?
One number for each entry.

O=C(O)c1cc(=O)c2ccccc2[nH]1	0.997
CNC(C)(C)Cc1ccccc1	1.01
COc1ccc(NS(=O)(=O)c2ccc(N)cc2)nn1	1
O=C(CCc1ccc(O)cc1)c1c(O)cc(O)cc1O	1.01
CN1C(=O)CC[C@H]1c1cccnc1	0.992
COC(=O)CC1C(C)(C)C(=O)C2CC3(O)C4=CC(=O)OC(c5ccoc5)C4(C)CCC3C1(C)C2=O (stereo not drawn)	1

Hey, quick one: what's normalized growth for each of these?
1. CNC(=O)N(C)c1nnc(C(C)(C)C)s1
2. O=C1c2ccccc2C(=O)c2ccccc21
3. COc1ccc(CC(=O)c2ccc(O)cc2O)cc1

1: 1.01; 2: 1.02; 3: 0.956

Hey, quick one: what's normalized growth for each of these?
1. O=C1C=C(O)c2ccccc2C1=O
2. Cn1cnc2c1c(=O)[nH]c(=O)n2C
3. COc1ccc([C@@H](C)C(=O)c2ccc(O)cc2O)cc1
4. Cc1ccc(O)c(C(CCN(C(C)C)C(C)C)c2ccccc2)c1 (stereo not drawn)

1. 0.957
2. 1.01
3. 0.971
4. 1.01
